Each recorded value in this set is attributed to ChEMBL document CHEMBL1201862.

# Tested on: NCI-H23
# Method summary: NCI tumour cell line growth inhibition, 48 h
Activity calls are given as the source filed them. Cut-off read from the data, not from the text of the source: active = GI50 up to about 1.1 µM and inactive = higher.
Parameter: GI50

Inquiry: # query: GI50 of entry CN(/N=C/c1cccc2cccnc12)c1ccccc1
Reply text: 59.8 µM (inactive)

Inquiry: # query: GI50 of entry O=C1CCC(=O)C12CCc1ccccc12
Reply text: > 100 µM (inactive)

Inquiry: Can you share its GI50? I mean this molecule: COC(=O)C[C@H]1[C@]2(C)C3=C(C)[C@H](c4ccoc4)CC3O[C@@H]2[C@@H]2OC(=O)[C@]3(C)CCC(=O)[C@@]1(C)[C@@H]23 (some centres undefined)
Reply text: 46.5 µM (inactive)

Inquiry: For the molecule CCNC(C)Cc1ccccc1 (centres undefined) , what GI50 is on record?
Reply text: > 100 µM (inactive)

Inquiry: Which GI50 is listed for CC1=CC(=O)/C(=C/NC(=S)c2ccncc2)C(=O)O1 ?
Reply text: > 100 µM (inactive)

Inquiry: Can you share its GI50? I mean this molecule: CC1=C(C(=O)Nc2cc(F)c(F)cc2F)C(c2ccc([N+](=O)[O-])cc2)C(C(=O)Nc2cc(F)c(F)cc2F)=C(C)N1
Reply text: 31.8 µM (inactive)

Inquiry: Look up GI50: COC(=O)c1nc(N)nc(C(=O)OC)c1C(=O)c1ccccc1
Reply text: > 100 µM (inactive)

Inquiry: Entry under review: O=C(C/C(=N\NC(=O)C[n+]1ccccc1)C(=O)Nc1nc2ccc([N+](=O)[O-])cc2s1)CC(c1ccccc1)c1c(O)c2ccccc2oc1=O (centres undefined) . Reported GI50?
Reply text: > 100 µM (inactive)

Inquiry: # input molecule: CCOC(=O)N1C2C=C(C)C(C3C(C)C(=O)N31)N(C(=O)c1ccccc1)O2 (centres undefined) ; wanted: its GI50
Reply text: > 100 µM (inactive)

====

# Test system: OVCAR-5
# Method summary: NCI tumour cell line growth inhibition, 48 h
The source made the active and inactive calls. Cut-off read from the data, not from the text of the source: active = GI50 up to about 1.1 µM and inactive = higher.
Write down the outcome that applies. Available outcomes: active, inactive

In [3]: df
Out[3]:
                                   compound       cat
0  Oc1nc2cc(Cl)ccc2nc1/C(=N\Nc1ccccc1)C(O)c1ccc2c(c1)OCO2 (stereo unspecified)  inactive
1  OC(CCN1CCN(CCOC(c2ccccc2)c2ccccc2)CC1)c1ccccc1 (stereo unspecified)  inactive
2  Clc1ccc(-c2nnc3c4nnc(-c5ccc(Cl)cc5Cl)n4c4ccccc4n23)c(Cl)c1  inactive
3  c1ccc(C2OC3(CCC[C@H]4C[C@H]43)O[C@H]2c2ccccc2)cc1 (stereo partly specified)  inactive
4  CC1=C(C(=O)N(C(C)C)C(C)C)CC(C(=O)N(C(C)C)C(C)C)=C(C)N1  inactive
5     CC(=O)c1cnc2oc3ccc(O)cc3c2c1-c1ccccc1  inactive
6  CC1(C)CC(=O)C(/C(=N/NC(=S)NN)C(=O)Nc2nc3ccc([N+](=O)[O-])cc3s2)C(=O)C1  inactive
7  O=C(CC(=O)c1ccccc1)c1ccccc1.O=C(CC(=O)c1ccccc1)c1ccccc1.O=C(CC(=O)c1ccccc1)c1ccccc1.[SiH4]  inactive
8          CCc1nc2c([nH]1)C(=O)c1ccccc1C2=O  inactive
9  Cc1ccc2nc(SCC(=O)N/N=C3\C(=O)Nc4ccccc43)n(-c3ccccc3)c(=O)c2c1  inactive

Let us examine a further case.
Inquiry: Which outcome was entered for the compound COc1ncnc2c(NC3OC(CO)C(O)C3O)ncnc12 (stereo unspecified) in this test?
Reply text: active
